system: P-Akt (S473); test: Cell based AlphaLISA assay, inhibition of P-Akt (S473) in MDA-MB-468 cells; details: Homo sapiens, 4 h, 0.017-1,000 nM, two to four hours at 37° C., AlphaLisa SureFire Ultra, read-out: pIC50 for Inhibition of mTORC1 and mTORC2 Substrate Phosphorylation, p-AKT1/2/3-(S473) (converted)
// IC50 lookup, one value per entry
observable: IC50

[[record]]
smilesnotation = "CO[C@H]1C[C@@H]2CC[C@@H](C)[C@@](O)(O2)C(=O)C(=O)N2CCCC[C@H]2C(=O)O[C@H]([C@H](C)C[C@@H]2CC[C@@H](O)[C@H](OC)C2)C[C@@H](O)[C@H](C)/C=C(\\C)[C@@H](O)[C@@H](OC)C(=NOCC(=O)N2CCc3nc(N4CCN(c5ncc(C(=O)NCCOCCOCCOCCC(=O)N6CCc7cc(Cn8nc(-c9cnc%10[nH]ccc%10c9)c9c(N)ncnc98)ccc7C6)cn5)CC4)ncc3C2)[C@H](C)C[C@H](C)/C=C/C=C/C=C/1C"
observable = "IC50"
recordedresult = "> 1000 nM"

[[record]]
smilesnotation = "CO[C@H]1C[C@@H]2CC[C@@H](C)[C@@](O)(O2)C(=O)C(=O)N2CCCC[C@H]2C(=O)O[C@H]([C@H](C)C[C@@H]2CC[C@@H](O)[C@H](OC)C2)C[C@@H](O)[C@H](C)/C=C(\\C)[C@@H](O)[C@@H](OC)C(=NOCC(=O)NCCOCCOCCOCCOCCOCCOCCOCCOCCC(=O)NCCS(=O)(=O)c2ccc(C(=O)N3CCOc4ccc(-c5ccc(N)nc5)cc4C3)c(C)c2)[C@H](C)C[C@H](C)/C=C/C=C/C=C/1C"
observable = "IC50"
recordedresult = "> 1000 nM"

[[record]]
smilesnotation = "CO[C@H]1C[C@@H]2CC[C@@H](C)[C@@](O)(O2)C(=O)C(=O)N2CCCC[C@H]2C(=O)O[C@H]([C@H](C)C[C@@H]2CC[C@@H](O)[C@H](OC)C2)C[C@@H](O)[C@H](C)/C=C(\\C)[C@@H](O)[C@@H](OC)C(=NOCC(=O)NCc2cnc(N3CCN(c4ncc(C(=O)NCCOCCC(=O)NCCCCn5nc(-c6ccc7oc(N)nc7c6)c6c(N)ncnc65)c(N)n4)CC3)nc2)[C@H](C)C[C@H](C)/C=C/C=C/C=C/1C"
observable = "IC50"
recordedresult = "> 1000 nM"

[[record]]
smilesnotation = "CO[C@H]1C[C@@H]2CC[C@@H](C)[C@@](O)(O2)C(=O)C(=O)N2CCCC[C@H]2C(=O)O[C@H]([C@H](C)C[C@@H]2CC[C@@H](O)[C@H](OC)C2)C[C@@H](O)[C@H](C)/C=C(\\C)[C@@H](O)[C@@H](OC)C(=NOCC(=O)N2CCc3nc(N4CCN(C(=O)CCOCCOCCOCCOCCC(=O)NCCCCn5nc(-c6ccc7oc(N)nc7c6)c6c(N)ncnc65)CC4)ncc3C2)[C@H](C)C[C@H](C)/C=C/C=C/C=C/1C"
observable = "IC50"
recordedresult = "31.6 to 1000 nM"

[[record]]
smilesnotation = "CO[C@H]1C[C@@H]2CC[C@@H](C)[C@@](O)(O2)C(=O)C(=O)N2CCCC[C@H]2C(=O)O[C@H]([C@H](C)C[C@@H]2CC[C@@H](O)[C@H](OC)C2)C[C@@H](O)[C@H](C)/C=C(\\C)[C@@H](O)[C@@H](OC)C(=NOCC(=O)NCc2cnc(N3CCN(C(=O)CCOCCN4CCN(c5ncc(C(=O)N6CCc7cc(Cn8nc(-c9cnc%10[nH]ccc%10c9)c9c(N)ncnc98)ccc7C6)cn5)CC4)CC3)nc2)[C@H](C)C[C@H](C)/C=C/C=C/C=C/1C"
observable = "IC50"
recordedresult = "> 1000 nM"

